biological target: Human immunodeficiency virus type 1 reverse transcriptase (Human immunodeficiency virus 1, UniProt Q72547)
Response field label: string, one of y (IC50 strictly below 3 µM) or n.

Answered examples (3):
smiles-data	discrete-label
Cc1ccc(C(=O)Nc2ccc3c(=O)n(O)c(=O)[nH]c3c2)cc1	y
O=c1[nH]c2ccc(NS(=O)(=O)c3ccc4ccccc4c3)cc2c(=O)n1O	y
O=c1[nH]c2ccc(NS(=O)(=O)c3cccc(C(F)(F)F)c3)cc2c(=O)n1O	y

Incoming: Bench note: check whether O=C(Nc1ccc2[nH]c(=O)n(O)c(=O)c2c1)c1ccccc1F shows IC50 below 3 µM
Outgoing: n

Incoming: Can you check O=c1[nH]c2cc(NS(=O)(=O)c3cccc(C(F)(F)F)c3)ccc2c(=O)n1O next?
Outgoing: n

Incoming: Can you check O=C(Nc1ccc2c(=O)n(O)c(=O)[nH]c2c1)c1ccc(F)cc1 next?
Outgoing: n

Incoming: Can you check CC(C)c1ccc(O)c(=O)c(O)c1 next?
Outgoing: y

Incoming: Can you check O=c1[nH]c2cc(NS(=O)(=O)c3ccc(F)cc3)ccc2c(=O)n1O next?
Outgoing: n

Incoming: Can you check O=C(Nc1ccc2c(=O)n(O)c(=O)[nH]c2c1)c1cccc(F)c1 next?
Outgoing: n

Incoming: Can you check O=c1[nH]c2cc(NS(=O)(=O)c3ccc(-c4ccccc4)cc3)ccc2c(=O)n1O next?
Outgoing: n

---

target: Human immunodeficiency virus type 1 integrase (Human immunodeficiency virus 1, UniProt Q7ZJM1); assay: Inhibition of strand transfer activity of HIV1 integrase expressed in Escherichia coli using DNA complexes containing 32P-labeled INT1ST and non-labeled INT2
Sequence (Q7ZJM1 whole entry): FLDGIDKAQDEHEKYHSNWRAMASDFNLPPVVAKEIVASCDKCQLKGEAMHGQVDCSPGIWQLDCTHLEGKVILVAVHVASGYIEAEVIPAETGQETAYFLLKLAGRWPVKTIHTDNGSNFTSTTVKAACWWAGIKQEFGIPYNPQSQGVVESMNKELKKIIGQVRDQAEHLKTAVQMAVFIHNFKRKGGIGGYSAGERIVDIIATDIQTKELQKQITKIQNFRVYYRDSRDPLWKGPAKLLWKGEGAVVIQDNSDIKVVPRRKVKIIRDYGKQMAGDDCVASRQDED
measure: pIC50
One number for each entry, as −log10 of the molar value.

Incoming: pIC50 lookup needed for O=c1[nH]c2ccc(NS(=O)(=O)c3ccc4ccccc4c3)cc2c(=O)n1O , thanks.
Outgoing: 6.07

---

assay: Cytotoxicity in mock-infected human MT4 cells assessed as reduction in cell viability incubated for 5 days by MTT assay; assay type: cell-based
So I've got a bunch of compounds here, and I need their CC50 at 120 h values.

Example entries and their recorded answers appear below.
smiles-data	CC50 at 120 h
O=c1[nH]c2cc(NS(=O)(=O)c3ccc(F)cc3)ccc2c(=O)n1O	> 356 µM
O=C(Nc1ccc2[nH]c(=O)n(O)c(=O)c2c1)c1ccccc1F	168 µM
O=c1[nH]c2ccc(NS(=O)(=O)c3cccc(C(F)(F)F)c3)cc2c(=O)n1O	176 µM

// for each compound in input: emit CC50 at 120 h
1. Cc1cccc(S(=O)(=O)Nc2ccc3c(=O)n(O)c(=O)[nH]c3c2)c1
2. O=C(Nc1ccc2c(=O)n(O)c(=O)[nH]c2c1)c1ccccc1

Outgoing:
1: 310 µM; 2: 36.6 µM

---

test: Apparent permeability in human Caco2 cells by LC analysis; assay type: ADME, cell-based; conditions: Caco-2
So I've got a bunch of compounds here, and I need their Papp values.
Numbers only, in ×10⁻⁶ cm/s.

compound	units-label	Papp
CC(C)(C)NCC(O)COc1cccc2c1CC(O)C(O)C2 (stereo not drawn)	×10⁻⁶ cm/s	0.09

Incoming: Papp lookup needed for COCCc1ccc(OCC(O)CNC(C)C)cc1 (stereo not drawn) , thanks.
Outgoing: 14.7

---

So I've got a bunch of compounds here, and I need their CC50 at 120 h values.
experiment: Cytotoxicity in mock-infected human MT4 cells assessed as reduction in cell viability incubated for 5 days by MTT assay; assay type: cell-based
Give bare numbers, in µM.

Example entries and their recorded answers appear below.
smiles-data	reported-measurement
Cc1nnc(C(=O)NC(C)(C)c2nc(C(=O)NCc3ccc(F)cc3)c(O)c(=O)n2C)o1	6.51
Cc1cc(C)c(S(=O)(=O)Nc2ccc3c(=O)n(O)c(=O)[nH]c3c2)c(C)c1	154

Turning now to a further compound:
Incoming: CC50 at 120 h lookup needed for O=c1[nH]c2cc(NS(=O)(=O)c3cccc(C(F)(F)F)c3)ccc2c(=O)n1O , thanks.
Outgoing: 80.2
